These data points were gathered from patent US8835644B2.

- Test system: S. epidermidis biofilm
- test-details: S. epidermidis biofilm assay (activity tables)
- Assay type: cell-based, Staphylococcus epidermidis
- condition: Furan analogues table
parameter: MIC S. epidermidis Biofilm

CC(=O)Oc1ccccc1C(=O)Nc1ncc([N+](=O)[O-])s1 [Nitazoxanide, reference compound] ... 32.5 µM

Exercise: Value wanted: MIC S. epidermidis Biofilm (S. epidermidis biofilm) of entry "O=C(Nc1ncc([N+](=O)[O-])s1)c1ccc([N+](=O)[O-])o1"
Key: 56.3 µM

Exercise: // query: "O=C(Nc1ncc([N+](=O)[O-])s1)c1ccc(Br)o1"
Key: 50.3 µM

Exercise: For "O=C(Nc1ncc([N+](=O)[O-])s1)c1ccc(-c2cccc(C(F)(F)F)c2)o1" then?
Key: 5.7 µM

Exercise: Moving on to "O=C(Nc1ncc([N+](=O)[O-])s1)c1cc2ccccc2o1"
Key: 110.6 µM

====

- Tested on: C. jejuni
- test-details: MIC testing by broth dilution, C. jejuni
- Assay type: cell-based, Campylobacter jejuni
- condition: broth dilution, Brain Heart Infusion, 24 h; read-out: MIC (μM) C. jejuni
Friendly reminder: MIC below 10 µM is met, at or above is not met.

Record excerpt, results attached:
COc1cccc(C(=O)Nc2ncc([N+](=O)[O-])s2)c1 [VPC161193] ... met
O=C(Nc1ncc([N+](=O)[O-])s1)c1ccc(C(F)(F)F)cc1[N+](=O)[O-] [VPC16b1016] ... not met
CC(=O)Nc1ncc([N+](=O)[O-])s1 [VPC16a1033] ... not met
Nc1ccccc1C(=O)Nc1ncc([N+](=O)[O-])s1 [VPC162055] ... not met
O=C(COc1ccccc1C(=O)Nc1ncc([N+](=O)[O-])s1)Nc1ccccc1 [VPC162056] ... not met
COc1ccc(-c2ccc(F)cc2F)cc1C(=O)Nc1ncc([N+](=O)[O-])s1 [VPC161171] ... not met

Exercise: # strict comparison: is reported MIC < 10 µM? input = O=C(Nc1ncc([N+](=O)[O-])s1)c1cccc(F)c1 [VPC161166]
Key: not met

Exercise: Similarly, CCCC(=O)Nc1ncc([N+](=O)[O-])s1 [VPC16b1045] ?
Key: met

====

- System: PFOR (pyruvate ferredoxin oxidoreductase)
- test-details: Direct PFOR enzyme assay
- Type: biochemical
- condition: * biphasic initial inhibition followed by uninhibited rate, ** caused some precipitant in extract
- Protocol: Representative compounds of the invention were tested in a series of assays against a series of organisms as described above. […] The organisms tested include, C. difficile, H. pylori, C. jejuni, MRSA, S. epidermidis, and E. coli. S. epidermidis and E. coli were tested in the plank and biofilm assay. A disk diffusion assay was also used for C. difficile. Direct PFOR enzyme assays were also performed. […]
Some molecules, each annotated with its measured PFOR inhibition relative to nitazoxanide (=100).
Answer in %, number only, no unit symbol.

Some solved entries appear below for comparison.
O=C(Nc1sc([N+](=O)[O-])cc1[N+](=O)[O-])c1cc(C(F)(F)F)ccc1Cl ... 100
O=C(Nc1sc([N+](=O)[O-])cc1[N+](=O)[O-])c1cccc(C(F)(F)F)c1Cl ... 113
CC(=O)Oc1ccccc1C(=O)Nc1ncc([N+](=O)[O-])s1 [Nitazoxanide, reference compound] ... 100
O=C(Nc1sc([N+](=O)[O-])cc1[N+](=O)[O-])c1cccs1 ... 143

Turning to the following molecule.
Exercise: Fill in: PFOR inhibition relative to nitazoxanide (=100) of "NCCOc1ccccc1C(=O)Nc1sc([N+](=O)[O-])cc1[N+](=O)[O-]" is ___
Key: 162
